Test System: HIV-1 IN A128T (Human immunodeficiency virus type 1 group M subtype B, UniProt P12497, A1275T)
Assay Notes: HTRF-based integration assay against drug-resistant IN
Parameter: IC50
Field note: include the unit after the figure.

Item CC(C)(C)OC(=O)N1CCC(C(=O)N[C@@H](Cc2ccc3ccccc3c2)C(=O)O)(c2ccccc2)CC1 [Compound 14e] : provide IC50
86.8 µM

====

Test System: HIV-1 IN H171T (Human immunodeficiency virus type 1 group M subtype B, UniProt P12497, H1318T)
Assay Notes: HTRF-based integration assay against drug-resistant IN
Parameter: IC50

Item CC(C)(C)OC(=O)N1CCC(C(=O)N[C@@H](Cc2ccc3ccccc3c2)C(=O)O)(c2ccccc2)CC1 [Compound 14e] : provide IC50
114 µM
